All values here come from paper PMC5216056.

target: mCB2R (Mus musculus); experiment: Operational analysis of biased signalling
Sequence (P47936 whole entry): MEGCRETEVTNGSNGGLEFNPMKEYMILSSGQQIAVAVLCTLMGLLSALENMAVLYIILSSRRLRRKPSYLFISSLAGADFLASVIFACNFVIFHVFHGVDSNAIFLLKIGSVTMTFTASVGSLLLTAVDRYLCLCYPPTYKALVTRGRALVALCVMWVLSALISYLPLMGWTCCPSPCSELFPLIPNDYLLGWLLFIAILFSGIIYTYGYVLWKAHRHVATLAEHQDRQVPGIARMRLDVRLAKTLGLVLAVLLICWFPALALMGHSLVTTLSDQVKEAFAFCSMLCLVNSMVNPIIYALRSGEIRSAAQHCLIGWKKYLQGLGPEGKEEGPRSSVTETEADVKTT
Measured quantity: LogR GTPγS
Answers are plain numbers.

{"Chemical structure": "CCCCCCC(C)(C)c1ccc([C@@H]2C[C@H](O)CC[C@H]2CCCO)c(O)c1", "Target": "mCB2R (Mus musculus)", "LogR GTPγS": 7.82}
{"Chemical structure": "CCCCCCC(C)(C)c1cc(OC)c([C@@H]2C=C(CO)[C@@H]3C[C@H]2C3(C)C)c(OC)c1", "Target": "mCB2R (Mus musculus)", "LogR GTPγS": 6.77}

Could you tell me LogR GTPγS for each of these molecules? They are listed below.
1. CCCC(C)(C)c1ccc2c(c1)OC(C)(C)[C@@H]1CC=C(C)C[C@@H]21
2. CCCCCCC(C)(C)c1cc(OC)c(C2=C[C@H]3CC[C@]2(CO)C3(C)C)c(OC)c1

1. 7.07
2. 7.15
